Ref: PubChem BioAssay

test: Primary imaging screen for DUSP6 inhibitors that restore phospho-Erk in transfected HeLa cells, chemical complementation (AID 609); conditions: HeLa MKP-3 transfected, phospho-Erk imaging KS statistic; measured here: nuclear c-Myc green intensity z-score; at 10 µM
Quick reference: z-score of the listed items.
Endpoint: z-score

- Compound: "C=CCC1(CN2CCCCCC2=O)C(=O)NC(=O)NC1=O"
  Endpoint: "z-score"
  Value Measured: 0.0168
- Compound: "O=c1[nH]c(=O)n(Cc2ccccc2)c(O)c1C=NCCN1CCNCC1"
  Endpoint: "z-score"
  Value Measured: 0.623
- Compound: "CCCCC1(CN2CCCC2=O)C(=O)NC(=O)NC1=O"
  Endpoint: "z-score"
  Value Measured: -1.01
- Compound: "COc1cc2[nH]c(=O)n(-c3cccc(Cl)c3)c(=O)c2cc1OC"
  Endpoint: "z-score"
  Value Measured: -1.11
- Compound: "C[N+]1(C)CCN(c2ccccc2)CC1"
  Endpoint: "z-score"
  Value Measured: -1.1
- Compound: "O=C(CCCN1CCC2(CC1)C(=O)NCN2c1ccccc1)c1ccc(F)cc1"
  Endpoint: "z-score"
  Value Measured: 0.206
- Compound: "CC1(c2ccccc2)NCCN2C(=O)CSC21 (stereo unspecified)"
  Endpoint: "z-score"
  Value Measured: -0.953
- Compound: "CC1(C)NCCN2C(=O)CSC21 (stereo unspecified)"
  Endpoint: "z-score"
  Value Measured: 0.411
- Compound: "C[C@@]1(CO)[C@H](O)CC[C@@]2(C)[C@H]1CC[C@H]1C[C@@H]3C[C@@]12CC[C@]3(O)CO"
  Endpoint: "z-score"
  Value Measured: -0.0811
- Compound: "COc1ccc(C(=O)N2CCCC2=O)cc1"
  Endpoint: "z-score"
  Value Measured: -0.632
- Compound: "O=c1[nH]c(=O)n(CCc2ccccc2)c(O)c1C=NCCN1CCNCC1"
  Endpoint: "z-score"
  Value Measured: -0.273
- Compound: "CN(C)CCOC(=O)c1cn(Cc2ccccc2)c2ccccc12"
  Endpoint: "z-score"
  Value Measured: -0.185
- Compound: "CCCC(=O)OCC[N+](C)(C)C"
  Endpoint: "z-score"
  Value Measured: -0.787
- Compound: "CC(NC(C)(C)C)C(=O)c1cccc(Cl)c1 (stereo unspecified)"
  Endpoint: "z-score"
  Value Measured: 0.546
- Compound: "Cc1c(N=Cc2c(O)n(CCc3ccccc3)c(=O)[nH]c2=O)c(=O)n(-c2ccccc2)n1C"
  Endpoint: "z-score"
  Value Measured: -1.15
- Compound: "CNCCc1c[nH]c2ccccc12"
  Endpoint: "z-score"
  Value Measured: -0.571

====

assay: TLR3 IRF3 reporter activation blockers – cell-based, poly I:C stimulus, luciferase, 10K MLSCN set, primary screen (AID 602277); details: HEK293-TLR3 RL24 IRF3 luciferase reporter, at 10 µM, stronger effect = higher value
Endpoint: inhibition (%)

- Smiles: "c1ccc(Cn2ccnc2)cc1"
  Result Units: "%"
  Value Measured: 27.2
- Smiles: "O=C(O)Cn1cc(C(=O)c2ccccc2)c2ccccc21"
  Result Units: "%"
  Value Measured: 23
- Smiles: "O=c1[nH]c(=O)n(CCc2ccccc2)c(O)c1C=NCCN1CCNCC1"
  Result Units: "%"
  Value Measured: 21.6

====

test: reduction of polyQ htt aggregates in cells – imaging, exon1htt(103Q)mCFP cells, high-content imaging, primary screen (AID 483); conditions: exon1htt(103Q)mCFP cell line, aggregate imaging, at 2 µM; measured here: cell count, toxicity;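 further: compound exposure lasted 3 days before fixation; percent of the per-plate median nuclei count of sample wells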

- Compound: "OC(CNC1CCCCC1)c1ccccc1 (configuration not stated)"
  nuclei count: "107%"
- Compound: "CC[C@@H](CO)NC(=O)[C@@H]1C=C2c3cccc4c3c(cn4C)C[C@H]2N(C)C1"
  nuclei count: "89.4%"
- Compound: "CC(C)C(=O)c1cn(Cc2ccccc2C#N)c2ccccc12"
  nuclei count: "72.7%"
- Compound: "COc1ccc(OC)c(C(O)C(C)N)c1 (configuration not stated)"
  nuclei count: "57.3%"
- Compound: "CCOC(=O)c1cc2c(cn1)[nH]c1ccccc12"
  nuclei count: "102%"
- Compound: "CC(=O)Nc1ccc(OC(=O)c2ccccc2N)cc1"
  nuclei count: "76.3%"
- Compound: "COc1ccc(C(=O)C(C)(C)NO)cc1"
  nuclei count: "94.3%"

====

test: Primary imaging screen for DUSP6 inhibitors that restore phospho-Erk in transfected HeLa cells, chemical complementation (AID 609); details: HeLa MKP-3 transfected, phospho-Erk imaging KS statistic; measured here: cell density z-score; at 10 µM
Endpoint: z-score

- Compound: "COCCOC(=O)C1=C(N)Oc2c(c(=O)oc3ccccc23)[C@@]12C(=O)Nc1ccccc12"
  Value Measured: 0.613
- Compound: "OC(c1ccc(F)cc1)C(c1ccccc1)N1CCOCC1 (stereo unspecified)"
  Value Measured: -0.0994
- Compound: "c1ccc2c3c([nH]c2c1)CNCC3"
  Value Measured: 0.136
- Compound: "CNCC(O)c1ccc(O)cc1 (stereo unspecified)"
  Value Measured: -0.968
- Compound: "CC[N+]1(C)CCCC(OC(=O)C(O)(c2ccccc2)c2ccccc2)C1 (stereo unspecified)"
  Value Measured: 1.46
- Compound: "CC1(C)NCCN2C(=O)CSC21 (stereo unspecified)"
  Value Measured: 0.771

====

target: Voltage-gated potassium channel subunit beta-2 (Rattus norvegicus); test: inhibitors of rat Kvbeta2 reductase activity – biochemical, NADPH fluorescence, primary screen (AID 622); conditions: recombinant KvBeta, 4-cyanobenzaldehyde reduction, at 10 µM;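 further: slope of raw intensity against log time taken from 70 to 1610 s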
Active and inactive are the calls of the source.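 Rule for the calls: active = fluorescence slope higher than the sample average by over 3 SD (cut at about -0.22 in these data, passing the limit was not always enough); inactive = the rest.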
Labels: YES = active, NO = inactive

- Compound: "O=C(NC1(C(F)(F)F)Oc2ccc(Cl)cc2O1)N1CCC2(CC1)OCCO2 (stereo not given)"
  Category: "NO"
- Compound: "CCCCn1c(O)c(C=NCCN2CCCCC2)c(=O)[nH]c1=O"
  Category: "NO"
- Compound: "CCCCNC(=O)Nc1ccc(C(O)(C(=O)OCC)C(F)(F)F)cc1 (stereo not given)"
  Category: "NO"
- Compound: "Nc1ccnn1C1CCNCC1"
  Category: "NO"
- Compound: "CSc1ccc(CNC2CN3CCC2CC3)cc1 (stereo not given)"
  Category: "NO"
- Compound: "Cc1ccc(C(=O)C2CN3CCC2CC3)cc1 (stereo not given)"
  Category: "NO"
- Compound: "O=c1[nH]c2ccccc2n1CCCN1CCC(n2c(=O)[nH]c3cc(Cl)ccc32)CC1"
  Category: "NO"
- Compound: "COc1ccc(CN2CCN(c3ccccc3F)CC2)c(OC)c1"
  Category: "NO"
- Compound: "Cn1c(O)c(C(=O)c2ccccc2Cl)c(=O)n(C)c1=O"
  Category: "NO"
- Compound: "O=C(O)Cn1cc(C(=O)c2ccccc2)c2ccccc21"
  Category: "NO"
- Compound: "CCOc1cccc(N2C(=O)CC(=O)NC2=O)c1"
  Category: "NO"
- Compound: "CC(C)(C)C(O)C(Oc1ccc(Cl)cc1)n1cncn1 (stereo not given)"
  Category: "NO"
- Compound: "Cc1cccc(-n2c(-c3ccco3)nc3ccccc3c2=O)n1"
  Category: "NO"
- Compound: "O=C(c1ccc2nc3ccc(Cl)cc3c(=O)n2c1)N1CCC2(CC1)OCCO2"
  Category: "NO"
- Compound: "O=C(CCCN1CCC2(CC1)C(=O)NCN2c1ccccc1)c1ccc(F)cc1"
  Category: "NO"
- Compound: "CCN(CC)CCCC(C)N=C(c1ccccc1)c1c(O)n(C)c(=O)n(C)c1=O (stereo not given)"
  Category: "NO"
- Compound: "CCOc1c(P(=S)(N(C)C)N(C)C)c(C)nn1-c1ccccc1"
  Category: "NO"
- Compound: "C=CCn1c(O)c(C(C)=NCCCO)c(=O)[nH]c1=O"
  Category: "NO"
- Compound: "CCCNC(=O)c1c(N)n(Cc2ccc3c(c2)OCO3)c2nc3ccccc3nc12"
  Category: "NO"
- Compound: "CC[C@@H](CO)NC(=O)[C@@H]1C=C2c3cccc4c3c(cn4C)C[C@H]2N(C)C1"
  Category: "YES"
- Compound: "CC[N+]1(C)CCCC(OC(=O)C(O)(c2ccccc2)c2ccccc2)C1 (stereo not given)"
  Category: "NO"
- Compound: "CN(C)CCOC(=O)c1cn(Cc2ccccc2)c2ccccc12"
  Category: "NO"
- Compound: "O=C(O)C1(c2ccc(Cl)cc2)CCC1"
  Category: "NO"
- Compound: "CN1CC=C2C(C#N)=C(N)C(C#N)(C#N)C(c3ccncc3)C2C1 (stereo not given)"
  Category: "NO"
- Compound: "O=C(c1ccco1)C12CN3CN(CN(C3)C1)C2"
  Category: "NO"

====

molecular target: Muscarinic acetylcholine receptor M4 (Homo sapiens); assay: M4-linked GIRK flux change, two-sided – cell-based, HEK293 M4/GIRK, thallium flux, BTC-AM, M4 allosteric agonist project, primary screen (AID 625); conditions: at 10 µM, actives lie on both sides;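 further: thallium influx through GIRK channels coupled to M4 in HEK293 cells with BTC-AM dye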
One threshold, 0.005, splits the recorded fluorescence slope values: lower ones are yes, equal or higher ones are no.

- Compound: "CCCCNC(=O)Nc1ccc(C(O)(C(=O)OCC)C(F)(F)F)cc1 (stereo not drawn)"
  Category: "no"
- Compound: "O=c1[nH]c(=O)n(-c2cccc3ccccc23)c(O)c1C=NCCCn1ccnc1"
  Category: "no"
- Compound: "CC1=C(C(=O)OC(C)C)[C@]2(C(=O)N(CC(N)=O)c3ccccc32)C(C#N)=C(N)O1"
  Category: "no"
- Compound: "CCCCc1nc(N2CCNCC2)c(C#N)c2c1CSC(C)(C)C2"
  Category: "yes"
- Compound: "Cc1ccc(C)c(C2(O)CC(C)N(C)CC2C)c1 (stereo not drawn)"
  Category: "no"
- Compound: "CCc1nc(N2CCNCC2)c(C#N)c2c1CSC(C)(C)C2"
  Category: "no"
- Compound: "Nc1ccccc1C(=O)OC1CSC1"
  Category: "yes"
- Compound: "CCn1c(O)c(C(=O)CC2NCCc3ccccc32)c(=O)n(CC)c1=S (stereo not drawn)"
  Category: "no"
- Compound: "CC1(C)NCCN2C(=O)CSC21 (stereo not drawn)"
  Category: "no"
